test system: Escherichia coli TOP10; assay: shrunken log2 fold change of peptide-encoding DNA abundance (4.5 h post-induction vs induction); higher = less antimicrobial activity (less host growth inhibition); conditions: time post-induction: 4.5 h; library: site-saturation at positions 5, 18, 19, 20;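 note: peptides expressed intracellularly from a pBAD plasmid library in pooled LB shake-flask culture, induced with 0.3% L-arabinose, DNA abundance read by NGS, three biological replicates, DESeq2 with apeglm shrinkage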
Label criterion met when shrunken log2 fold change is at or above -0.001; anything below gets criterion not met.

RRIRFRPPRLPRPRPRPENPPRP    criterion not met
RRIRIRPPRLPRPRPRPYWLPRP    criterion not met
RRIRQRPPRLPRPRPRPRKWPRP    criterion met
RRIRHRPPRLPRPRPRPQRKPRP    criterion not met
RRIRYRPPRLPRPRPRPYWMPRP    criterion not met
RRIRQRPPRLPRPRPRPFQGPRP    criterion not met
RRIRDRPPRLPRPRPRPHNKPRP    criterion not met
RRIRKRPPRLPRPRPRPQNKPRP    criterion met

Decide: shrunken log2 fold change of `RRIRHRPPRLPRPRPRPDCDPRP` >= -0.001?
criterion not met

Decide: shrunken log2 fold change of `RRIRQRPPRLPRPRPRPLALPRP` >= -0.001?
criterion met

Decide: shrunken log2 fold change of `RRIRKRPPRLPRPRPRPTDYPRP` >= -0.001?
criterion met

Decide: shrunken log2 fold change of `RRIRLRPPRLPRPRPRPNSSPRP` >= -0.001?
criterion not met

Decide: shrunken log2 fold change of `RRIRPRPPRLPRPRPRPLHKPRP` >= -0.001?
criterion not met

Decide: shrunken log2 fold change of `RRIRKRPPRLPRPRPRPCALPRP` >= -0.001?
criterion met

Decide: shrunken log2 fold change of `RRIRMRPPRLPRPRPRPNLRPRP` >= -0.001?
criterion not met

Decide: shrunken log2 fold change of `RRIRERPPRLPRPRPRPRNCPRP` >= -0.001?
criterion not met
